target: Muscarinic acetylcholine receptor M1 (Homo sapiens) (UniProt P11229); experiment: Cholinergic receptor muscarinic 1 (CHRM1) small molecule antagonists, cell-based qHTS assay (AID 1963588); conditions: CHRM1-CHO antagonist mode, calcium flux fluorescence; series mostly up to 61.5 µM; also: nearly all actives have a fitted effect of over 40% in size
Sequence (P11229 whole entry, looked up): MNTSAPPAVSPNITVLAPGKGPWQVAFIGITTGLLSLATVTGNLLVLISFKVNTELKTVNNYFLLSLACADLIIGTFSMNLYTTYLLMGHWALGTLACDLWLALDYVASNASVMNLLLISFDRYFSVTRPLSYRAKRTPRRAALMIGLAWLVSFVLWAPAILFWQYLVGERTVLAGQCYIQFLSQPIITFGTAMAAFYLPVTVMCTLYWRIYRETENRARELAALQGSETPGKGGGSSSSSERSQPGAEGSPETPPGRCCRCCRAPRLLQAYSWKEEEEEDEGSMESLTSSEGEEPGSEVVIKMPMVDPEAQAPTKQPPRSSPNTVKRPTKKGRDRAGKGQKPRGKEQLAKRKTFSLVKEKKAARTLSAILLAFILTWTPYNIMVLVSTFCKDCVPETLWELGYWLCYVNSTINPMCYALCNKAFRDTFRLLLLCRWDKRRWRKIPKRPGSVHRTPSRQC
Results filed as inconclusive are left out. Calls of active or inactive are those of the source. Calls follow the shape of the full dose curve.
Classes used: YES = active, NO = inactive

molecule: Cc1ccn2nc(S(=O)(=O)Nc3c(F)cccc3F)nc2n1
qualitative-label: NO
--
molecule: COC(=O)C(C)N(C(=O)c1ccco1)c1c(C)cccc1C (stereo unspecified)
qualitative-label: NO
--
molecule: CC1(C)CCC(Cc2ccc(Cl)cc2)C1(O)Cn1cncn1 (stereo unspecified)
qualitative-label: NO
--
molecule: COC(=O)c1cc(Oc2ccc(Cl)cc2Cl)ccc1[N+](=O)[O-]
qualitative-label: YES
--
molecule: CN/C(=N\[N+](=O)[O-])NCC1CCOC1 (stereo unspecified)
qualitative-label: NO
--
molecule: Oc1c(Cl)c(Cl)cc(Cl)c1Cl
qualitative-label: NO
--
molecule: O=C(OC1CCCCC1)c1ccccc1C(=O)OC1CCCCC1
qualitative-label: NO
--
molecule: O=C(O)c1ccc2[nH]cc(CCCCN3CC=C(c4ccccc4)CC3)c2c1
qualitative-label: NO
--
molecule: C[As+](C)(C)CC(=O)[O-]
qualitative-label: NO
--
molecule: C=CC(C)(CCC=C(C)C)OC(=O)c1ccccc1N (stereo unspecified)
qualitative-label: NO
--
molecule: COc1ccc([N+](=O)[O-])cc1O
qualitative-label: NO
--
molecule: CCC1(CC)C(=O)NC(=O)NC1=O
qualitative-label: NO
--
molecule: S=C=NCc1ccccc1
qualitative-label: NO
--
molecule: O=C(NC(=O)c1c(F)cccc1F)Nc1ccc(Oc2ccc(C(F)(F)F)cc2Cl)cc1F
qualitative-label: NO
--
molecule: CCC(COC(=O)c1cc(OC)c(OC)c(OC)c1)(c1ccccc1)N(C)C (stereo unspecified)
qualitative-label: NO
--
molecule: CC1Sc2c(C(=O)O)c(=O)c3cc(F)c(N4CCNCC4)cc3n21 (stereo unspecified)
qualitative-label: NO
--
molecule: CCCN(CCC)c1c([N+](=O)[O-])cc(S(C)(=O)=O)cc1[N+](=O)[O-]
qualitative-label: YES
--
molecule: ClP(Cl)(Cl)(Cl)Cl
qualitative-label: NO
--
molecule: CC1CCCCC1NC(=O)Nc1ccccc1 (stereo unspecified)
qualitative-label: NO
--
molecule: Nc1c(Cl)c(F)nc(OCC(=O)O)c1Cl
qualitative-label: NO
--
molecule: O=C(O)CBr
qualitative-label: NO
--
molecule: CCOC(=O)OC1=C(c2cc(C)ccc2C)C(=O)NC12CCC(OC)CC2 (stereo unspecified)
qualitative-label: NO
--
molecule: CCNc1nc(NC(C)C(C)C)nc(SC)n1 (stereo unspecified)
qualitative-label: NO
--
molecule: Clc1cc(C(Cl)(Cl)Cl)cnc1Cl
qualitative-label: NO
--
molecule: CC1NCCOC1c1ccccc1 (stereo unspecified)
qualitative-label: NO
--
molecule: COC1=CC(=O)O[C@@H](/C=C/c2ccccc2)C1
qualitative-label: NO
--
molecule: OCCCBr
qualitative-label: NO
--
molecule: CN/C(=N\[N+](=O)[O-])NCc1cnc(Cl)s1
qualitative-label: NO
--
molecule: CC1(C(=O)Nc2ccc(O)c(Cl)c2Cl)CCCCC1
qualitative-label: NO
--
molecule: C=CC(=O)OCCCCOC(=O)C=C
qualitative-label: NO
--
molecule: O=C(O)[C@H](O)[C@@H](O)C(=O)O
qualitative-label: NO
--
molecule: CNC(C)Cc1ccc2c(c1)OCO2 (stereo unspecified)
qualitative-label: NO
--
molecule: OCCBr
qualitative-label: NO
--
molecule: CN=CNc1ccc(C)cc1C
qualitative-label: NO
--
molecule: II
qualitative-label: NO
--
molecule: O=C1C=CC(=O)c2ccccc21
qualitative-label: NO
--
molecule: CN[C@@H](C)[C@H](O)c1ccccc1
qualitative-label: NO
--
molecule: NC(=O)CI
qualitative-label: NO
--
molecule: CC(c1ccccc1)(c1ccc(O)cc1)c1ccc(O)cc1
qualitative-label: NO
--
molecule: C1=CCC=C1
qualitative-label: NO
--
molecule: O=C1C(Cl)C(CCl)CN1c1cccc(C(F)(F)F)c1 (stereo unspecified)
qualitative-label: NO
--
molecule: CCOC(=O)C(Cl)C(C)=O (stereo unspecified)
qualitative-label: YES
--
molecule: BrCCCBr
qualitative-label: NO
--
molecule: CS(=O)(=O)c1ccc(C(=O)C2C(=O)CCCC2=O)c(Cl)c1COCC(F)(F)F
qualitative-label: NO
--
molecule: CNC(=O)CSP(=O)(OC)OC
qualitative-label: NO
--
molecule: [O-][Br+2]([O-])O
qualitative-label: NO
--
molecule: Fc1ccc(Oc2ccnc3cc(Cl)cc(Cl)c23)cc1
qualitative-label: NO
--
molecule: BrCBr
qualitative-label: NO
--
molecule: CCN1CCCC1CNC(=O)C(O)(c1ccccc1)c1ccccc1 (stereo unspecified)
qualitative-label: YES
--
molecule: Clc1ccc2ccccc2c1
qualitative-label: NO
--
molecule: CC(C)(C)c1ccc(CCOc2ncnc3ccccc23)cc1
qualitative-label: NO
--
molecule: O=c1c(C2CC(c3ccc(-c4ccc(Br)cc4)cc3)Cc3ccccc32)c(O)sc2ccccc12 (stereo unspecified)
qualitative-label: NO
--
molecule: CCCCCCCCCCCCCC[P+](CCCCCC)(CCCCCC)CCCCCC (tested in a mixture with another compound)
qualitative-label: NO
--
molecule: CCN(CC)C(=O)[C@@H]1C=C2c3cccc4[nH]cc(c34)C[C@H]2N(C)C1
qualitative-label: NO
--
molecule: N#CCCC(Br)(C#N)CBr (stereo unspecified)
qualitative-label: NO
--
molecule: CCN(CC)C(=O)Cl
qualitative-label: NO
